assayTarget: UniProtKB Q9NR97
Sequence (Q9NR97 27-1041): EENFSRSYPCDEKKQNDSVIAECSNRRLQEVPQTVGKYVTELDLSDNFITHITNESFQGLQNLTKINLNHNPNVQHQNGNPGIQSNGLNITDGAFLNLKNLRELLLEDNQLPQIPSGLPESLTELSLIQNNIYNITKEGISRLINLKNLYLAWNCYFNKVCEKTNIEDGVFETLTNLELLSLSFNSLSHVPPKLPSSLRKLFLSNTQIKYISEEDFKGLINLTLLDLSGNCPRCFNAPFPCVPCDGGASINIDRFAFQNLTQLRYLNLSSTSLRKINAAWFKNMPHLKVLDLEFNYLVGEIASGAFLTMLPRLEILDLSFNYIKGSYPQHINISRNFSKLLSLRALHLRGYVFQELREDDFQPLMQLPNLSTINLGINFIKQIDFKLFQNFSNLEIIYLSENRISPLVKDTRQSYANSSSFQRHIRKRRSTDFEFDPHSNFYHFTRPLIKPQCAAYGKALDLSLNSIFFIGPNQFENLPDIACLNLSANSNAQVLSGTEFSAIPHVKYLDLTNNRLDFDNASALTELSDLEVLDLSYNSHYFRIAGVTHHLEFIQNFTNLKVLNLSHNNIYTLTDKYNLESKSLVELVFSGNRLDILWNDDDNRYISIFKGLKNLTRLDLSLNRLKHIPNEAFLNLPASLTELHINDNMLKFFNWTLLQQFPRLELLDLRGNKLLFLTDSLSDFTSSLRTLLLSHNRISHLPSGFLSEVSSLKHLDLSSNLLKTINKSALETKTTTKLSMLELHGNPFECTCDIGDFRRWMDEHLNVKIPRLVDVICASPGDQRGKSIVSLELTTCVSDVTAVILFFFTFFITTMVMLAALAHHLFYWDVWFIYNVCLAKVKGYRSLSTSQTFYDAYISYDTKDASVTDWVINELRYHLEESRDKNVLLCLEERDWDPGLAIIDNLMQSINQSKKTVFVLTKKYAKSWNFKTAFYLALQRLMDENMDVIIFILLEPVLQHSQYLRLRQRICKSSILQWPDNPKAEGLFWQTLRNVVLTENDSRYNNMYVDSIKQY
experimentalProtocol: TLR8 inhibition reporter assay (HEK-Blue SEAP);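 note: SEAP driven by IFN-β minimal promoter carrying NF-κB and AP-1 sites, compounds dosed 0.05 nM to 50 µM for 22 h, inhibition scaled between agonist-plus-DMSO and reference-inhibitor wells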
testConditions: read-out: TLR8 IC50; HEK-Blue cells overexpressing human TLR8, R848 15.9 μM stimulation, SEAP reporter
measurementName: IC50 (nM)

>>> measurednumber("CNC(=O)CN(C)C1CCC(c2ccc3[nH]c(-c4cc(OC)c5ncnn5c4)c(C(C)C)c3n2)CC1 (stereo not shown) [Example 228]")
23
>>> measurednumber("COc1cc(-c2[nH]c3cc(C)c(C4CCC(N(C)CCC#N)CC4)nc3c2C(C)C)cn2ncnc12 (stereo not shown) [Example 339]")
7.1
>>> measurednumber("Cc1c(-c2[nH]c3ccc(N4CC(N)C4)nc3c2C(C)C)cn2ncnc2c1C")
4.2
>>> measurednumber("COc1cc(-c2[nH]c3ccc(C4CCC(NC5COC5)CC4)nc3c2C(C)C)cn2ncnc12 (stereo not shown) [Example 178]")
1.8
>>> measurednumber("COc1cc(-c2[nH]c3ccc(C4CCC(N(C)CC(N)=O)CC4)nc3c2C(C)C)cn2ncnc12 (stereo not shown) [Example 225]")
35

(A) CC(C)c1c(-c2cn(C)c3ncccc23)[nH]c2ccc(N3CC(N)C3)nc12 [Example 35]
(B) COc1cc(-c2[nH]c3ccc(N4CC(N(C)C)C4)nc3c2C(C)C)cn2ncnc12
(C) CCN(C)C1CCC(c2nc3c(C(C)C)c(-c4cc(OC)c5ncnn5c4)[nH]c3cc2C)CC1 (stereo not shown) [Example 320]
(D) CNC1CCC(c2ccc3[nH]c(-c4cn(CCO)c5ncccc45)c(C(C)C)c3n2)CC1 (stereo not shown) [Example 299]
(E) COc1cc(-c2[nH]c3ccc(C4CCC(N(C)CC(=O)N(C)C)CC4)nc3c2C(C)C)cn2ncnc12 (stereo not shown) [Example 226]
Reorder the items by IC50, least to greatest. Reply format: the labels, ordered as requested.
B, D, E, C, A

(a) COCCN(C)C1CCC(c2ccc3[nH]c(-c4cn5ncnc5c(C)c4C)c(C(C)C)c3n2)CC1 (stereo not shown) [Example 391]
(b) CCN(C)C1CCC(c2nc3c(C(C)C)c(-c4cc(OC)c5ncnn5c4)[nH]c3cc2C)CC1 (stereo not shown) [Example 313]
Task for the reader: decide whether a or b has the larger IC50. Kindly state the label of the option you pick.
a
(a: 14 nM, b: 7 nM)

(A) COC(=O)N1CCN(C2CN(c3ccc4[nH]c(-c5cn6ncnc6c(C)c5C)c(C(C)C)c4n3)C2)CC1
(B) Cc1c(-c2[nH]c3ccc(N4CCCNCC4)nc3c2C(C)C)cn2ncnc2c1C
(C) COc1ncc(CNC2CCN(c3ccc4[nH]c(-c5cn6ncnc6c(C)c5C)c(C(C)C)c4n3)CC2)cn1
Reorder the items by IC50, least to greatest. Reply format: the labels, ordered as requested.
C, B, A
(C: 0.9 nM, B: 2.8 nM, A: 57 nM)
